Source: patent US6989371B1

# Tested on: PTC (colon)
# method-summary: MTT cytotoxicity assay, 72 hours (Example 13)
# Assay type: cell-based, human
# recorded-conditions: 100 nM
Non-standard residues stand in square brackets, D forms with d. Residues, ends and D or L forms follow the SMILES beside them. Aib = CC(C)(N)C(=O)O
endpoint-label: Percent Cytotoxicity
Reply with a number, then the unit it belongs to.

(Q) Request - read-out Percent Cytotoxicity | tested on PTC (colon) | compound CC[C@H](C)[C@H](NC(=O)[C@H](Cc1c[nH]cn1)NC(=O)CNC(=O)[C@@H](NC(=O)C(C)(C)NC(=O)[C@H](Cc1c[nH]c2ccccc12)NC(=O)[C@H](CCC(N)=O)NC(=O)[C@H](N)Cc1ccccc1)C(C)C)C(N)=O [SEQ ID: 6, D-Phe-Gln-Trp-Aib-Val-Gly-His-Ile-NH2] (H-[dF]QW[Aib]VGHI-NH2; N-terminus assumed)
(A) 24.7 ± 5.2%

* * *

# System: DU145 (prostate)
# method-summary: MTT cytotoxicity assay, 72 hours (Example 13)
# Assay type: cell-based, human
# recorded-conditions: DU145, 10 nM
Non-standard residues stand in square brackets, D forms with d. Residues, ends and D or L forms follow the SMILES beside them. Aib = CC(C)(N)C(=O)O
# Percent Cytotoxicity annotations
// return numeric value only (unit: %, not printed)

>>> test_value("CC(C)C[C@H](NC(=O)[C@H](Cc1c[nH]cn1)NC(=O)C(C)(C)NC(=O)[C@@H](NC(=O)[C@H](C)NC(=O)[C@@H](Cc1c[nH]c2ccccc12)NC(=O)[C@H](CCC(N)=O)NC(=O)[C@H](N)Cc1ccccc1)C(C)C)C(N)=O [SEQ ID: 5, D-Phe-Gln-D-Trp-Ala-Val-Aib-His-Leu-NH2] (H-[dF]Q[dW]AV[Aib]HL-NH2; N-terminus assumed)")
22.0

From here, focus on the item given below.
(Q) I would be grateful if you could share the reported Percent Cytotoxicity for CC(C)C[C@H](NC(=O)[C@H](Cc1c[nH]cn1)NC(=O)CNC(=O)[C@@H](NC(=O)C(C)(C)NC(=O)[C@H](Cc1c[nH]c2ccccc12)NC(=O)[C@H](CCC(N)=O)NC(=O)[C@H](N)Cc1ccccc1)C(C)C)C(N)=O [SEQ ID: 4, D-Phe-Gln-Trp-Aib-Val-Gly-His-Leu-NH2] (H-[dF]QW[Aib]VGHL-NH2; N-terminus assumed) .
(A) 23.4

* * *

# System: MOLT-4 (leukemia)
# method-summary: MTT cytotoxicity assay, 72 hours (Example 13)
# Assay type: cell-based, human
# recorded-conditions: MOLT4, 10 nM
Non-standard residues stand in square brackets, D forms with d. Residues, ends and D or L forms follow the SMILES beside them. Aib = CC(C)(N)C(=O)O
endpoint-label: Percent Cytotoxicity

>>> test_value("CC(C)C[C@H](NC(=O)[C@H](Cc1c[nH]cn1)NC(=O)CNC(=O)[C@@H](NC(=O)C(C)(C)NC(=O)[C@H](Cc1c[nH]c2ccccc12)NC(=O)[C@H](CCC(N)=O)NC(=O)[C@H](N)Cc1ccccc1)C(C)C)C(N)=O [SEQ ID: 4, D-Phe-Gln-Trp-Aib-Val-Gly-His-Leu-NH2] (H-[dF]QW[Aib]VGHL-NH2; N-terminus assumed)")
"28.7 ± 4.2%"
>>> test_value("CC[C@H](C)[C@H](NC(=O)[C@H](Cc1c[nH]cn1)NC(=O)C(C)(C)NC(=O)[C@@H](NC(=O)[C@H](C)NC(=O)[C@H](Cc1c[nH]c2ccccc12)NC(=O)[C@H](CCC(N)=O)NC(=O)[C@H](N)Cc1ccccc1)C(C)C)C(N)=O [SEQ ID: 7, D-Phe-Gln-Trp-Ala-Val-Aib-His-Ile-NH2] (H-[dF]QWAV[Aib]HI-NH2; N-terminus assumed)")
"NIL"
>>> test_value("CC[C@H](C)[C@H](NC(=O)[C@H](Cc1c[nH]cn1)NC(=O)CNC(=O)[C@@H](NC(=O)C(C)(C)NC(=O)[C@H](Cc1c[nH]c2ccccc12)NC(=O)[C@H](CCC(N)=O)NC(=O)[C@H](N)Cc1ccccc1)C(C)C)C(N)=O [SEQ ID: 6, D-Phe-Gln-Trp-Aib-Val-Gly-His-Ile-NH2] (H-[dF]QW[Aib]VGHI-NH2; N-terminus assumed)")
"20.4 ± 4.3%"
>>> test_value("CCCC(CCC)(NC(=O)[C@@H](NC(=O)[C@H](C)NC(=O)[C@@H](Cc1c[nH]c2ccccc12)NC(=O)[C@H](CCC(N)=O)NC(=O)[C@H](N)Cc1ccccc1)C(C)C)C(=O)N[C@@H](Cc1c[nH]cn1)C(=O)N[C@@H](CC(C)C)C(N)=O [SEQ ID: 8, D-Phe-Gln-D-Trp-Ala-Val-Dpg-His-Leu-NH2]")
"12.8 ± 3.3%"

Next item in the queue.
(Q) Given the entry CC(C)C[C@H](NC(=O)[C@H](Cc1c[nH]cn1)NC(=O)C(C)(C)NC(=O)[C@@H](NC(=O)[C@H](C)NC(=O)[C@@H](Cc1c[nH]c2ccccc12)NC(=O)[C@H](CCC(N)=O)NC(=O)[C@H](N)Cc1ccccc1)C(C)C)C(N)=O [SEQ ID: 5, D-Phe-Gln-D-Trp-Ala-Val-Aib-His-Leu-NH2] (H-[dF]Q[dW]AV[Aib]HL-NH2; N-terminus assumed) , what Percent Cytotoxicity was observed with MOLT-4 (leukemia)?
(A) 4.3 ± 0.6%

* * *

# Tested on: PA-1 (ovary)
# method-summary: MTT cytotoxicity assay, 72 hours (Example 13)
# Type: cell-based, human
# recorded-conditions: PA-1, 10 nM
Non-standard residues stand in square brackets, D forms with d. Residues, ends and D or L forms follow the SMILES beside them. Aib = CC(C)(N)C(=O)O
Form field: Percent Cytotoxicity (one value per entry).
Please respond with the number in % and leave the unit unwritten.

Answered cases to consult:
>>> test_value("CC(C)C[C@H](NC(=O)[C@H](Cc1c[nH]cn1)NC(=O)C(C)(C)NC(=O)[C@@H](NC(=O)[C@H](C)NC(=O)[C@@H](Cc1c[nH]c2ccccc12)NC(=O)[C@H](CCC(N)=O)NC(=O)[C@H](N)Cc1ccccc1)C(C)C)C(N)=O [SEQ ID: 5, D-Phe-Gln-D-Trp-Ala-Val-Aib-His-Leu-NH2] (H-[dF]Q[dW]AV[Aib]HL-NH2; N-terminus assumed)")
20.9
>>> test_value("CCCC(CCC)(NC(=O)[C@@H](NC(=O)[C@H](C)NC(=O)[C@@H](Cc1c[nH]c2ccccc12)NC(=O)[C@H](CCC(N)=O)NC(=O)[C@H](N)Cc1ccccc1)C(C)C)C(=O)N[C@@H](Cc1c[nH]cn1)C(=O)N[C@@H](CC(C)C)C(N)=O [SEQ ID: 8, D-Phe-Gln-D-Trp-Ala-Val-Dpg-His-Leu-NH2]")
20.4
>>> test_value("CC(C)C[C@H](NC(=O)[C@H](Cc1c[nH]cn1)NC(=O)CNC(=O)[C@@H](NC(=O)C(C)(C)NC(=O)[C@H](Cc1c[nH]c2ccccc12)NC(=O)[C@H](CCC(N)=O)NC(=O)[C@H](N)Cc1ccccc1)C(C)C)C(N)=O [SEQ ID: 4, D-Phe-Gln-Trp-Aib-Val-Gly-His-Leu-NH2] (H-[dF]QW[Aib]VGHL-NH2; N-terminus assumed)")
4.3
>>> test_value("CC[C@H](C)[C@H](NC(=O)[C@H](Cc1c[nH]cn1)NC(=O)C(C)(C)NC(=O)[C@@H](NC(=O)[C@H](C)NC(=O)[C@H](Cc1c[nH]c2ccccc12)NC(=O)[C@H](CCC(N)=O)NC(=O)[C@H](N)Cc1ccccc1)C(C)C)C(N)=O [SEQ ID: 7, D-Phe-Gln-Trp-Ala-Val-Aib-His-Ile-NH2] (H-[dF]QWAV[Aib]HI-NH2; N-terminus assumed)")
22.7

As a next step, examine the molecule that follows.
(Q) I am curious: what Percent Cytotoxicity value has been reported for CC[C@H](C)[C@H](NC(=O)[C@H](Cc1c[nH]cn1)NC(=O)CNC(=O)[C@@H](NC(=O)C(C)(C)NC(=O)[C@H](Cc1c[nH]c2ccccc12)NC(=O)[C@H](CCC(N)=O)NC(=O)[C@H](N)Cc1ccccc1)C(C)C)C(N)=O [SEQ ID: 6, D-Phe-Gln-Trp-Aib-Val-Gly-His-Ile-NH2] (H-[dF]QW[Aib]VGHI-NH2; N-terminus assumed) ?
(A) 8.7

* * *

# Test system: HBL 100 (Breast)
# method-summary: MTT cytotoxicity assay, 48 hours (Example 14)
# Type: cell-based, human
# recorded-conditions: HBL100, 10 pM
Non-standard residues stand in square brackets, D forms with d. Residues, ends and D or L forms follow the SMILES beside them. *: point of attachment. Octanoyl = CCCCCCCC(=O)*; Ac5c = NC1(C(=O)O)CCCC1; Aib = CC(C)(N)C(=O)O; Butyryl = CCCC(=O)*
endpoint-label: Percentage cytotoxicity
Note: state the figure and append the unit.

Recorded results for 2 molecules are shown here.
>>> test_value("CCCC(=O)N[C@H](Cc1ccccc1)C(=O)N[C@@H](CCC(N)=O)C(=O)N[C@@H](Cc1c[nH]c2ccccc12)C(=O)N[C@@H](C)C(=O)N[C@H](C(=O)NC(C)(C)C(=O)N[C@@H](Cc1c[nH]cn1)C(=O)N[C@@H](CC(C)C)C(N)=O)C(C)C [SEQ ID: 11] (Butyryl-[dF]QWAV[Aib]HL-NH2)")
"18.2 ± 1.1%"
>>> test_value("CC(C)C[C@H](NC(=O)[C@H](Cc1c[nH]cn1)NC(=O)C1(NC(=O)[C@@H](NC(=O)[C@H](C)NC(=O)[C@H](Cc2c[nH]c3ccccc23)NC(=O)[C@H](CCC(N)=O)NC(=O)[C@H](N)Cc2ccccc2)C(C)C)CCCC1)C(N)=O [SEQ ID: 10, D-Phe-Gln-Trp-Ala-Val-Ac5c-His-Leu-NH2] (H-[dF]QWAV[Ac5c]HL-NH2; N-terminus assumed)")
"21.1 ± 0.7%"

The record that follows has no Percentage cytotoxicity shown yet.
(Q) Any idea what its Percentage cytotoxicity is? The molecule is CCCCCCCC(=O)N[C@H](Cc1ccccc1)C(=O)N[C@@H](CCC(N)=O)C(=O)N[C@@H](Cc1c[nH]c2ccccc12)C(=O)N[C@@H](C)C(=O)N[C@H](C(=O)NC(C)(C)C(=O)N[C@@H](Cc1c[nH]cn1)C(=O)N[C@@H](CC(C)C)C(N)=O)C(C)C [SEQ ID: 12] (Octanoyl-[dF]QWAV[Aib]HL-NH2)
(A) 29.0 ± 3.8%
